system.under.test: human CB1 receptor (Homo sapiens, UniProt P21554)
Construct: expressed in transfected cells; host or cells: SK-N-MC cells, stably transfected with pcDNA3 CB-1 (human); semi-purified membrane pellet
Sequence (P21554 whole entry): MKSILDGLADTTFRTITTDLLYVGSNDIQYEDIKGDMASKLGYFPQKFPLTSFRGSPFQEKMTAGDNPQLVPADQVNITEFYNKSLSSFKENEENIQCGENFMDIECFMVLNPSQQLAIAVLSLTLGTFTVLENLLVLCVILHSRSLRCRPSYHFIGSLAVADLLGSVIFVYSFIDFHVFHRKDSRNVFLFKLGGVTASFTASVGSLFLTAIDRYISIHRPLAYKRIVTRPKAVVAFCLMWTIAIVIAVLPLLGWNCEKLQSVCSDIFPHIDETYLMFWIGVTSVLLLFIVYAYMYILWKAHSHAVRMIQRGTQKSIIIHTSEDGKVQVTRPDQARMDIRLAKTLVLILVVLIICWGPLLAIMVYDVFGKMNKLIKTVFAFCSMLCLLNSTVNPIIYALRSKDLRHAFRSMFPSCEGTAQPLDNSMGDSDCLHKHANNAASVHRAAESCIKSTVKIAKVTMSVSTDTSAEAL
protocol.summary: biochemical
Type: binding
pIC50: −log10 of the molar value.
Parameter threshold = 6. Response is yes (1) when pIC50 meets or exceeds it, else no (0).

# molecule, class.label
measured = [
    ("CC1(C)C2CCC1(C)C(NC(=O)c1nn(C3CCCCC3)c3c1CCCC3)C2 (centres unmarked)", "yes (1)"),
    ("CC(c1ccccc1)n1nc(C(=O)NCC2CCCCC2)c2c1CCCC2 (centres unmarked)", "yes (1)"),
    ("C[C@@H](NC(=O)c1nn(-c2ccc(Cl)cc2Cl)c2c1CCCC2=Cc1ccc(Br)cc1)C1CCCCC1", "yes (1)"),
    ("COc1ccccc1CCNC(=O)c1nn(C2CCCCC2)c2c1CCCC2", "no (0)"),
]

**Query** Is the recorded value of pIC50 equal to or greater than 6 for this molecule? CCOC(=O)[C@H]1C2CCC(C2)[C@H]1NC(=O)CCc1nn(C2CCCCC2)c2c1CCCC2 (some centres unmarked)
**Result** no (0)

====

Measured IC50 of individual entries
system.under.test: human CB2 receptor (Homo sapiens)
Sequence (P34972 whole entry): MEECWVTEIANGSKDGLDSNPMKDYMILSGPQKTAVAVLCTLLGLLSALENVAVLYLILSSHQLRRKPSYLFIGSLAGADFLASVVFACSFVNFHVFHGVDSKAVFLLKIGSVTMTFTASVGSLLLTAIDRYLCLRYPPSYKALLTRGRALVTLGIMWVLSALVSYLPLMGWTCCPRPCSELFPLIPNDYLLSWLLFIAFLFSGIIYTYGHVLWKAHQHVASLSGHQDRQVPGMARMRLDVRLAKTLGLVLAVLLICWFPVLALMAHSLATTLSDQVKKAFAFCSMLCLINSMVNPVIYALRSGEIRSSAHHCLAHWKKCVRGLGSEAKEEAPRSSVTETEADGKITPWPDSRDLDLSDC
protocol.summary: Binding assay, cannabinoid CB2 receptor ([3H]-CP-55,940 displacement)
condition.info: human CB2 receptor, SK-N-MC cell membranes, radioligand CP-55,940 0.2 nM; read-out: Cannabinoid CB2 Receptor Binding IC50
Experimental: Binding Assay for CB1 or CB2 Agonists or Inverse Agonists The human CB1 and CB2 receptors were stably expressed in SK-N-MC cells transfected with pcDNA3 CB-1 (human) or pcDNA3 CB-2 (human). […] On the day of the assay, the pellet was thawed on ice and diluted in assay buffer (50 mM Tris-HCl, 5 mM MgCl2, 2.5 mM EDTA, 0.5 mg/mL fatty acid free bovine serum albumin, pH 7.5). […] Non-specific binding was measured in wells containing 10 uM WIN 55,212. […]
Give the value in µM but do not write µM after it.

Completed entries (count: 8):
# compound, IC50 (µM)
data = [
    ("O=C(NC1CN2CCC1CC2)c1nn(C2CCCCC2)c2c1CCCC2 (stereo not drawn) [compound 225]", 0.65),
    ("O=C(NC1C2CCC(C2)C1C(=O)O)c1nn(C2CCCCC2)c2c1CC(C(=O)O)CC2 (stereo not drawn) [compound 138]", 11.8),
    ("COc1ccccc1CCNC(=O)c1nn(-c2ccccc2)c2c1CCCC2 [compound 238]", 3.72),
    ("COC(=O)C(Cc1ccc(OCc2ccccc2)cc1)NC(=O)c1c2c(nn1-c1ccc(OC)cc1)CCCC2 (stereo not drawn) [compound 4]", 3.69),
    ("COc1ccc(-n2nc3c(c2C(=O)NCCc2ccc(N)cc2)CCCC3)cc1 [compound 8]", 21.2),
    ("COC1CCCc2c(C(=O)NC3C4CC5CC(C4)CC3C5)nn(C3CCCCC3)c21 (stereo not drawn) [compound 162]", 0.11),
    ("O=C(Nc1nn(C2CCCCC2)c2c1CCCC2)c1ccccc1 [compound 186]", 2.29),
    ("CCN(C(=O)c1c2c(nn1-c1ccc(OC)cc1)CCCC2)c1ccccc1OC [compound 121]", 6.27),
]

# next compound below
Form: item COc1ccc(-n2nc(C(=O)NCCc3ccc(N)cc3)c3c2CCCC3)cc1 [compound 7] ; test system human CB2 receptor (Homo sapiens); IC50: 3.57
